- System: NCI-H23
- Assay Notes: NCI 60 cell line panel screen (SRB)
- Assay type: cell-based, human
- Experimental Parameters: Non-Small Cell Lung Cancer, NCI-H23
Could you please report measured Log10GI50 for the items listed next?

For orientation, consider the following solved cases.
CC1CCC2C(C)C(CC(COC(=O)CCC(=O)O)CC3OC4OC5(C)CCC6C(C)CCC(C3C)C46OO5)OC3OC4(C)CCC1C32OO4 (stereo not drawn) [Compound 8a, bis-trioxane primary succinate monoester]; <−8.30
C[C@@H]1CC[C@H]2[C@@H](C)C(CC(O)(COC(=O)CCC(=O)O)CC3OC4O[C@]5(C)CC[C@H]6[C@H](C)CC[C@@H]([C@H]3C)C46OO5)OC3O[C@]4(C)CCC1C32OO4 (stereo partly drawn) [Compound 9, tertiary alcohol primary succinate ester]; <−8.30

Consider the record given below.
Under NCI-H23: report Log10GI50 of CC1CCC2C(C)C(CC(O)(CC3OC4OC5(C)CCC6C(C)CCC(C3C)C46OO5)CS(=O)(=O)c3ccc(C(=O)O)cc3)OC3OC4(C)CCC1C32OO4 (stereo not drawn) [Compound 10c] .
<−8.30

These entries and their values trace back to patent US7417156B2.
